Consider the following compounds; for each one, report its inhibition at 1 µM.
# test.target: c-kit (Homo sapiens, UniProt P10721)
# Construct: MO7e (human megakaryocytic leukemia cell line) which had been arrested for 20 hr; endogenous in cells; host or cells: MO7e human megakaryocytic leukemia cell line
# Sequence (P10721 26-976): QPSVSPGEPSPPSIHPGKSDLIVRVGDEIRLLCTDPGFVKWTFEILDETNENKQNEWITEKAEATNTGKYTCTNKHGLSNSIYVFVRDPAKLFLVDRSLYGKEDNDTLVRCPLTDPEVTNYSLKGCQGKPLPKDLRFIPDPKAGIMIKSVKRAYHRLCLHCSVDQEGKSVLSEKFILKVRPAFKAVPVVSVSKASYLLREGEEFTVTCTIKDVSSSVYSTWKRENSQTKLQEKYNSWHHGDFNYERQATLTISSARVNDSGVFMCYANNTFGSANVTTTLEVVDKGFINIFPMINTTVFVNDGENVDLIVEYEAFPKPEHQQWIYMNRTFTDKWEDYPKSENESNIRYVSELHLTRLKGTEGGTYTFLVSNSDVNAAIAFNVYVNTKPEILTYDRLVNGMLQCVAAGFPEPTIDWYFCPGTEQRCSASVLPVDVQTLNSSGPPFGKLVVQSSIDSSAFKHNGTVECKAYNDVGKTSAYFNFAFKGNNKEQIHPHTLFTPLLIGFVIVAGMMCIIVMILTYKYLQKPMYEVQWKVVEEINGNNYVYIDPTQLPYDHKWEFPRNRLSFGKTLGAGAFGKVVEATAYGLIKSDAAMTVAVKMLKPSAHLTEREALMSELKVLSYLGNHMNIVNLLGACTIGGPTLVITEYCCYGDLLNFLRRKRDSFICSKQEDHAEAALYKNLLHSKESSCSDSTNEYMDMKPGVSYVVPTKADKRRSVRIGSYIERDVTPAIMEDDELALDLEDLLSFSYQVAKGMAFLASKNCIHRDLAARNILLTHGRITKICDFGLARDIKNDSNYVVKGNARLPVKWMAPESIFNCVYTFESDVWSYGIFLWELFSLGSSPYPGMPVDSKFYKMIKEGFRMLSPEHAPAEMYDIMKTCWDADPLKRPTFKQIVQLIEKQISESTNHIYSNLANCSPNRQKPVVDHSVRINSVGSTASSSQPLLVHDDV
# assay.overview: Inhibitory activity against c-kit autophosphorylation (MO7e cells, h-SCF)
# Type: cell-based
# stated.conditions: Mo7e, figure in parentheses in −( ); at 1000 nM
Expressed in %, but write only the number.

The compound "COc1cc2nccc(Oc3ccc(S(=O)(=O)CCOc4ccccc4C(C)C)cc3)c2cc1OC" on c-kit (Homo sapiens, UniProt P10721): inhibition at 1 µM was 39

The compound COc1cc2nccc(Oc3ccc([S+]([O-])CCOc4ccc(Cl)cc4Cl)cc3)c2cc1OC (stereo not shown) on c-kit (Homo sapiens, UniProt P10721): inhibition at 1 µM was 14

The compound "COc1cc2nccc(Oc3cc(C)c(NC(=O)Oc4ccccc4C(C)(C)C)cc3C)c2cc1OC" on c-kit (Homo sapiens, UniProt P10721): inhibition at 1 µM was 39

The compound "COc1cc2nccc(Oc3ccc(NC(=S)NC(=O)c4ccc(Cl)cc4Cl)c(C)c3C)c2cc1OC" on c-kit (Homo sapiens, UniProt P10721): inhibition at 1 µM was 19

The compound COc1cc2ncnc(Oc3ccc(NC(=O)OC(C)c4cccc(C(F)(F)F)c4)c(Cl)c3)c2cc1OC (stereo not shown) on c-kit (Homo sapiens, UniProt P10721): inhibition at 1 µM was 20

The compound "COc1cc2nccc(Oc3ccc(NC(=S)NC(=O)c4ccc(CCl)cc4)c(F)c3)c2cc1OC" on c-kit (Homo sapiens, UniProt P10721): inhibition at 1 µM was 27

The compound "CCCCCCCCCCCCCCCCCCOC(=O)Nc1cc(C)c(Oc2ccnc3cc(OC)c(OC)cc23)cc1C" on c-kit (Homo sapiens, UniProt P10721): inhibition at 1 µM was 6

The compound "COc1cc2nccc(Oc3ccc(NC(=S)NC(=O)c4ccc(Cl)cc4)c(C)c3C)c2cc1OC" on c-kit (Homo sapiens, UniProt P10721): inhibition at 1 µM was 15

The compound "COc1cc2nccc(Oc3ccc(NC(=S)NC(=O)c4ccc(Cl)cc4)c(F)c3)c2cc1OC" on c-kit (Homo sapiens, UniProt P10721): inhibition at 1 µM was 24

The compound "COc1cc2nccc(Oc3ccc(NC(=S)NC(=O)c4ccccc4F)c(F)c3)c2cc1OC" on c-kit (Homo sapiens, UniProt P10721): inhibition at 1 µM was 29

The compound "COc1cc2ncnc(Oc3ccc(NC(=S)NC(=O)CCc4cccc(C)c4)cc3)c2cc1OC" on c-kit (Homo sapiens, UniProt P10721): inhibition at 1 µM was 26

The compound "COc1cc2nccc(Oc3ccc(NC(=S)NC(=O)c4ccc([N+](=O)[O-])cc4)c(C)c3)c2cc1OC" on c-kit (Homo sapiens, UniProt P10721): inhibition at 1 µM was 10

The compound "COc1cc2nccc(Oc3ccc(NCCOc4c(OC)cccc4OC)c(C)c3C)c2cc1OC" on c-kit (Homo sapiens, UniProt P10721): inhibition at 1 µM was 30

The compound "COc1cc2ncnc(Oc3ccc(NC(=S)NC(=O)c4ccncc4)cc3)c2cc1OC" on c-kit (Homo sapiens, UniProt P10721): inhibition at 1 µM was 31

The compound "CCCCCCCCCCCCCC(=O)NC(=S)Nc1ccc(Oc2ccnc3cc(OC)c(OC)cc23)cc1" on c-kit (Homo sapiens, UniProt P10721): inhibition at 1 µM was 20

The compound COc1cc2ncnc(Oc3ccc(NC(=O)OC(C)c4ccccc4F)c(Cl)c3)c2cc1OC (stereo not shown) on c-kit (Homo sapiens, UniProt P10721): inhibition at 1 µM was 10

* * *

# test.target: PDGF-Ra (Homo sapiens, UniProt P16234)
# Construct: host or cells: G-292 human osteosarcoma cells
# Sequence (P16234 24-1089): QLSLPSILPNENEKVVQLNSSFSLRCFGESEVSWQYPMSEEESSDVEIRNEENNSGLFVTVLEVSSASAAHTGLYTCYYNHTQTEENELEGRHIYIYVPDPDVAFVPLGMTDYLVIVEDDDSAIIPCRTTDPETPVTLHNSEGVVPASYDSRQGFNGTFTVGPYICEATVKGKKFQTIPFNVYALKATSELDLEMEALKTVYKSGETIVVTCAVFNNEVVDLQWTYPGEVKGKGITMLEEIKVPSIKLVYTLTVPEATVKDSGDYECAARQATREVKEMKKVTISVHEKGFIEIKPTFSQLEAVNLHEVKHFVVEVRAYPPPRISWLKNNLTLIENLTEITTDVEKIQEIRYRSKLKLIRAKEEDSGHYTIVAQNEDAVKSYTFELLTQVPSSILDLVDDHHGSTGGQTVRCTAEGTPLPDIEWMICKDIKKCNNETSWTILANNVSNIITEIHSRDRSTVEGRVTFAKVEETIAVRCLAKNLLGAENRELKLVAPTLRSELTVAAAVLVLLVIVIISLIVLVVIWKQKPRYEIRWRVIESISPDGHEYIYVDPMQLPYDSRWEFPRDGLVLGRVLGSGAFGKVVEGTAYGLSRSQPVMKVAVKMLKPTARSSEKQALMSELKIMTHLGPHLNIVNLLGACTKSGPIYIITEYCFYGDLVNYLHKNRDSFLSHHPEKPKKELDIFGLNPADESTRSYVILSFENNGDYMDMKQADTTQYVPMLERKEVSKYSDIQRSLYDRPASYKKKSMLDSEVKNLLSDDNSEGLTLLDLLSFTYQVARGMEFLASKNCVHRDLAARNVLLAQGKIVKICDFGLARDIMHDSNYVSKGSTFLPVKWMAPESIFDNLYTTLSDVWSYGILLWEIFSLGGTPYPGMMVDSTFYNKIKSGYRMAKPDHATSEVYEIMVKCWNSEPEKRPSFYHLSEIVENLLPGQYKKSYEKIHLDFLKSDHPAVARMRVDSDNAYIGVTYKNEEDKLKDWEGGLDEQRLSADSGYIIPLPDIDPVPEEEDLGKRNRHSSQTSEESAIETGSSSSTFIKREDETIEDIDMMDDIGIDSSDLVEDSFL
# assay.overview: Inhibitory activity against PDGF-Ra phosphorylation by PDGF-AA stimulation using G292
# Format: cell-based
# stated.conditions: Pharmacological Test Example 1; > means inhibition at indicated concentration not more than 50%, < and << not less than 50%; read-out: PDGF (E) IC50
reported.endpoint: IC50 (nM)
Expressed in nM, but write only the number.

IC50 recorded for this compound, "CCCC(CCC)OC(=O)Nc1cc(C)c(Oc2ccnc3cc(OC)c(OC)cc23)cc1C" , is 12

IC50 recorded for this compound, "COc1cc2nccc(Oc3cc(C)c(NC(=O)OCCCOc4ccccc4OC)cc3C)c2cc1OC" , is 52

IC50 recorded for this compound, COc1cc2nccc(Oc3ccc(NC(=O)OC(C)c4cccc(Br)c4)cc3)c2cc1OC (centres unmarked) , is 26

IC50 recorded for this compound, COc1cc2nccc(Oc3ccc(NC(=O)OC(C)c4cccc(OC(F)(F)F)c4)cc3)c2cc1OC (centres unmarked) , is 63

IC50 recorded for this compound, "COc1cc2nccc(Oc3ccc(NC(=O)OCCCc4ccccc4)c(C)c3C)c2cc1OC" , is 14

* * *

# test.target: PDGF-Ra (Homo sapiens, UniProt P16234)
# Construct: host or cells: G-292 human osteosarcoma cells
# assay.overview: Inhibitory activity against PDGF-Ra phosphorylation by PDGF-AA stimulation using G292
# Format: cell-based
# stated.conditions: Pharmacological Test Example 1; > means inhibition at indicated concentration not more than 50%, < and << not less than 50%; read-out: PDGF (E) IC50
pIC50: −log10 of the molar value.
Binary call on pIC50: MET from 8 upward, NOT MET beneath that.

(Q) Say whether "COc1ccc(COC(=O)Nc2cc(C)c(Oc3ccnc4cc(OC)c(OC)cc34)cc2C)cc1OC" shows pIC50 of 8 or more.
(A) NOT MET

(Q) Say whether "COc1cc2ncnc(Oc3ccc(NC(=O)OCc4ccc(C(C)(C)C)cc4)cc3)c2cc1OC" shows pIC50 of 8 or more.
(A) MET

(Q) Say whether "COc1ccc(COC(=O)Nc2ccc(Oc3ncnc4cc(OC)c(OC)cc34)cc2Cl)cc1OC" shows pIC50 of 8 or more.
(A) NOT MET

(Q) Say whether "COc1cc2nccc(Oc3ccc(NC(=O)OCCSc4cc(C)ccc4C)cc3)c2cc1OC" shows pIC50 of 8 or more.
(A) NOT MET

(Q) Say whether "COc1ccc(COC(=O)Nc2ccc(Oc3ccnc4cc(OC)c(OC)cc34)cc2)cc1" shows pIC50 of 8 or more.
(A) MET

* * *

# test.target: c-kit (Homo sapiens, UniProt P10721)
# Construct: MO7e (human megakaryocytic leukemia cell line) which had been arrested for 20 hr; endogenous in cells; host or cells: MO7e human megakaryocytic leukemia cell line
# assay.overview: Inhibitory activity against c-kit autophosphorylation (MO7e cells, h-SCF)
# Format: cell-based
# stated.conditions: Mo7e, figure in parentheses in −( ); at 1000 nM
reported.endpoint: inhibition at 1 µM (%)
Expressed in %, but write only the number.

inhibition at 1 µM recorded for this compound, "COc1cc2nccc(Oc3ccc(NC(=S)NC(=O)c4ccc([N+](=O)[O-])cc4)c(F)c3)c2cc1OC" , is 27

inhibition at 1 µM recorded for this compound, COc1cc2nccc(Oc3cc(C)c(NC(=O)OC(C)c4ccccc4F)cc3C)c2cc1OC (stereo not shown) , is 39

inhibition at 1 µM recorded for this compound, "COc1cc2nccc(Oc3ccc(NC(=S)NC(=O)c4ccc5c(c4)OCO5)cc3Cl)c2cc1OC" , is 35

inhibition at 1 µM recorded for this compound, "COc1cc2ncnc(Oc3ccc(NC(=S)NC(=O)C4CC4)cc3)c2cc1OC" , is 26

* * *

Consider the following molecules; for each one, report its pIC50.
# test.target: c-kit (Homo sapiens, UniProt P10721)
# Construct: MO7e (human megakaryocytic leukemia cell line) which had been arrested for 20 hr; endogenous in cells; host or cells: MO7e human megakaryocytic leukemia cell line
# assay.overview: Inhibitory activity against c-kit autophosphorylation (MO7e cells, h-SCF)
# Type: cell-based
# stated.conditions: MO7e cells, 50 ng/ml h-SCF; read-out: c-kit IC50
Expect pIC50 as a plain number equal to -log10 of the molar concentration.

pIC50 recorded for this molecule, "COc1cc2ncnc(Oc3ccc(OCCCOc4ccc(F)cc4)cc3)c2cc1OC" , is 7.21

pIC50 recorded for this molecule, COc1cc2nccc(Oc3ccc(NC(=O)NC4CCN(Cc5ccccc5C)C4)c(C)c3C)c2cc1OC (centres unmarked) , is 6.58

pIC50 recorded for this molecule, "COc1cc2nccc(Oc3cc(C)c(NC(=O)NCCN(C)C)cc3C)c2cc1OC" , is 6.22

pIC50 recorded for this molecule, "COc1cc2nccc(Oc3ccc(NC(=S)NCc4ccccc4)cc3Cl)c2cc1OC" , is 6.64

pIC50 recorded for this molecule, "COc1cccc(CNC(=O)COc2ccc(Oc3ncnc4cc(OC)c(OC)cc34)cc2)c1" , is 7.15

pIC50 recorded for this molecule, "COc1cc2nccc(Oc3ccc(NC(=S)NC(=O)Cc4ccccc4F)cc3Cl)c2cc1OC" , is 6.20

pIC50 recorded for this molecule, "COc1cc2ncnc(Oc3ccc(NC(=S)NC(=O)Cc4ccccc4Cl)cc3)c2cc1OC" , is 6.94

Ref: patent US7135466B2
